System: L1210 leukemia ip in BDF1 mice, survival T/C
Assay: NCI In Vivo Anticancer Drug Screen. Data for tumor model L1210 Leukemia (intraperitoneal) in B6D2F1 (BDF1) mice
Settings: endpoint: mean survival time; dose: 400.0 mg/kg/injection; schedule: Q01DX009 (ip); vehicle: Klucel (hydroxypropylcellulose) (HPC); higher = longer survival
Inconclusive results and toxic doses are left out.
Please go through the items and note down their T/C.

[ask] Query T/C for O=C(NC1CCCCC1)C1COc2ccccc2O1 (stereo not given)
[reply] 97 % of control

[ask] Provide measured T/C value, entry: C=CCn1c(/N=C\N(C)C)cc(=O)[nH]c1=O
[reply] 100 % of control

[ask] Identify measured T/C corresponding to Cc1ccc([N+](=O)[O-])cc1NC(=O)Nc1cccc2ccc(O)cc12
[reply] 104 % of control

[ask] Provide measured T/C value, entry: O=C1c2ccccc2C(=O)c2c(Nc3ccc(CCO)cc3)ccc(O)c21
[reply] 101 % of control

[ask] Specify T/C for Cc1nc(Cl)cc(=O)[nH]1 and stop.
[reply] 90 % of control

###

System: L1210 leukemia ip in BDF1 mice, survival T/C
Experiment: NCI In Vivo Anticancer Drug Screen. Data for tumor model L1210 Leukemia (intraperitoneal) in B6D2F1 (BDF1) mice
Settings: endpoint: mean survival time; dose: 200.0 mg/kg/injection; schedule: Q01DX001 (ip); vehicle: other; higher = longer survival
Inconclusive results and toxic doses are left out.
assayReadout: T/C

[ask] Let me know recorded T/C for O=[N+]([O-])c1cccc2cncc(Br)c12 , thanks.
[reply] 106 % of control

[ask] Return T/C for the following molecule: C=CCC1(O)C(c2ccccc2)=C(c2ccccc2)C(c2ccccc2)=C1c1ccccc1
[reply] 98 % of control

[ask] Determine from records and report T/C for C[C@H]1CCC/C=C/[C@@H]2C[C@H](O)C[C@H]2[C@H](O)/C=C/C(=O)O1
[reply] 95 % of control

[ask] State its T/C: CCOP(=S)(NCCCOC)OCC
[reply] 93 % of control

[ask] Entry CN(C)c1ccc(C(=O)c2ccc(N(C)C)c(N)c2)cc1N needs its T/C filled in; supply it.
[reply] 92 % of control

[ask] Complete the entry with T/C for CC1=C(N)C(=O)C(C)=C(N)C1=O
[reply] 88 % of control

[ask] For Cc1c2c([nH]c(=O)c1C)C=CC(Br)C2Br (configuration not stated) , write its T/C.
[reply] 101 % of control

###

Hi there, I'd appreciate the recorded T/C for every entry that follows.
System: L1210 leukemia ip in BDF1 mice, survival T/C
Experiment: NCI In Vivo Anticancer Drug Screen. Data for tumor model L1210 Leukemia (intraperitoneal) in B6D2F1 (BDF1) mice
Details: endpoint: mean survival time; dose: 75.0 mg/kg/injection; schedule: Q01DX001 (ip); vehicle: saline; higher = longer survival
Toxic doses and inconclusive results are not listed.

[ask] Provide measured T/C value, entry: NC(N)=N/N=C/c1cc(Cl)cc(Cl)c1O
[reply] 101 % of control

[ask] Give the reported T/C for this molecule. NN(C(=O)c1ccc([N+](=O)[O-])cc1)c1ccccc1
[reply] 95 % of control

[ask] Give reported T/C value for C=C(C)C1(CCC)C(=O)NC(=S)NC1=O
[reply] 107 % of control

[ask] Kindly indicate its recorded T/C. Item: C[n+]1ccc(/C=C/Nc2cccc(N)n2)cc1
[reply] 96 % of control

[ask] State, in one line, measured T/C of O=C(Nc1c(Oc2ccc(Cl)c(Cl)c2)ccc(Cl)c1S(=O)(=O)O)Nc1c(Oc2ccc(Cl)c(Cl)c2)ccc(Cl)c1S(=O)(=O)O
[reply] 101 % of control

[ask] Entry O=c1c2ccccc2[nH]c(=S)n1-c1cccc(Cl)c1 needs its T/C filled in; supply it.
[reply] 93 % of control

[ask] Kindly indicate its recorded T/C. Item: CCCC(C)NCCOC(=O)Nc1ccccc1 (stereo not drawn)
[reply] 91 % of control

[ask] For CC(C)C(NC(=O)OCc1ccccc1)C(=O)O (stereo not drawn) , write its T/C.
[reply] 96 % of control

[ask] Identify measured T/C associated with Oc1[nH]c2ccccc2c1N=NC(=S)Nc1ccccc1
[reply] 91 % of control

[ask] # return recorded T/C for entry C=C(C)C1(C)C(=O)NC(=S)NC1=O
[reply] 108 % of control

[ask] For CCOC(=O)Nc1cc(NC(C)CCCN(CC)CC)nc2nc(-c3ccc(Cl)cc3)cnc12 (stereo not drawn) , write its T/C.
[reply] 100 % of control

[ask] Respond only with T/C recorded for N#Cc1cc[n+](Cc2ccccc2)cc1
[reply] 101 % of control

[ask] Report T/C for CC(O)(C#N)C(F)(F)F (stereo not drawn)
[reply] 102 % of control

###

Test system: L1210 leukemia ip in BDF1 mice, survival T/C
Assay: NCI In Vivo Anticancer Drug Screen. Data for tumor model L1210 Leukemia (intraperitoneal) in B6D2F1 (BDF1) mice
Conditions: endpoint: mean survival time; dose: 100.0 mg/kg/injection; schedule: Q04DX002 (ip); vehicle: saline with Tween-80; higher = longer survival
Toxic doses and inconclusive results are not listed.
assayReadout: T/C

[ask] Report T/C for CC(C)(C=O)CO
[reply] 94 % of control

[ask] Provide one value: measured T/C of O=C1C=CC(c2ccccc2)(c2ccccc2)C=C1
[reply] 96 % of control

[ask] Consider the molecule CCN(CC)c1ccc(NCN2C(=O)c3ccccc3C2=O)c(C)c1 . State its measured T/C.
[reply] 97 % of control

[ask] Answer with the recorded T/C for the molecule listed here: CCN(CC)C(=O)Oc1ccc(C(C)=O)cc1
[reply] 103 % of control

[ask] Report measured T/C; entry is Cc1c2oc3c(C)ccc(C(=O)OCCN4CCCCC4)c3nc-2c(C(=O)OCCN2CCCCC2)c(N)c1=O
[reply] 113 % of control

[ask] Entry [O-][n+]1c2ccccc2c(Cl)c2ccc3ccccc3c21 needs its T/C filled in; supply it.
[reply] 93 % of control

[ask] Name the recorded T/C of the molecule listed here: CCC(=O)Oc1ccc(/C=N/NC(N)=S)nc1
[reply] 113 % of control

###

Give measured T/C for each item. Keep answers brief.
System: L1210 leukemia ip in BDF1 mice, survival T/C
Test: NCI In Vivo Anticancer Drug Screen. Data for tumor model L1210 Leukemia (intraperitoneal) in B6D2F1 (BDF1) mice
Conditions: endpoint: mean survival time; dose: 400.0 mg/kg/injection; schedule: Q01DX001 (ip); vehicle: carboxymethylcellulose (CMC); higher = longer survival
Inconclusive results and toxic doses are left out.

[ask] Provide one value: measured T/C of CC12CCC(CC1Cl)C2 (stereo unspecified)
[reply] 96 % of control

[ask] Provide one value: measured T/C of CCOC(=O)/C(C#N)=C\c1cc(O)c(O)c(OC)c1
[reply] 103 % of control

[ask] Note down T/C recorded for CN1Cc2c(ccc3c2OCO3)[C@@H]2[C@H](O)Cc3cc4c(cc3[C@@H]21)OCO4
[reply] 102 % of control

[ask] Please report T/C for the following compound: c1ccc(Oc2nnc3c4ccccc4ccn23)cc1
[reply] 98 % of control

[ask] Report measured T/C; entry is O=c1nc(NO)c(Br)cn1C1CCCCO1 (stereo unspecified)
[reply] 96 % of control

[ask] # return recorded T/C for input O=S(=O)(O)SCCCNc1ncnc2ccccc12
[reply] 102 % of control

[ask] Fill in reported T/C for this entry: CC1CCOCO1 (stereo unspecified)
[reply] 95 % of control

[ask] Specify T/C for CCOC(=O)Nc1ccc2c(c1)/C(=N/O)c1ccccc1-2 and stop.
[reply] 91 % of control

[ask] Return value of T/C for input O=c1cc(C2CCCCC2)[nH]c(=S)[nH]1 , no commentary.
[reply] 90 % of control

[ask] State its T/C: N#Cc1ccccc1CCl
[reply] 107 % of control

[ask] Provide only the value of recorded T/C for Nc1cccc2cccc([N+](=O)[O-])c12
[reply] 96 % of control

###

Assignment: determine reported T/C for the given molecules.
System: L1210 leukemia ip in BDF1 mice, survival T/C
Assay: NCI In Vivo Anticancer Drug Screen. Data for tumor model L1210 Leukemia (intraperitoneal) in B6D2F1 (BDF1) mice
Conditions: endpoint: mean survival time; dose: 200.0 mg/kg/injection; schedule: Q01DX009 (ip); vehicle: Klucel (hydroxypropylcellulose) (HPC); higher = longer survival
Inconclusive results and toxic doses are left out.

[ask] Name the recorded T/C of the item CC12CCC3c4ccccc4CCC3(CO1)C2 (configuration not stated) in your answer.
[reply] 105 % of control

[ask] Entry CNc1ccccc1Cc1ccccc1 needs its T/C filled in; supply it.
[reply] 99 % of control

[ask] Retrieve T/C measured for COc1ccccc1NC(=O)Nc1cccc(C)c1C and print it.
[reply] 92 % of control

[ask] Given the molecule Cc1ccc(C)c(NC(=O)N(CCO)C2CCCCC2)c1 , write its reported T/C.
[reply] 95 % of control

[ask] Output T/C of COC12CC(COC(=O)c3cncc(Br)c3)CN(C)C1Cc1cn(C)c3cccc2c13 (configuration not stated)
[reply] 116 % of control

[ask] Let me know recorded T/C for COc1ccc(C(C#N)N2CCOCC2)cc1 (configuration not stated) , thanks.
[reply] 96 % of control

[ask] # return recorded T/C for entry O=CNc1ccc(Br)cc1
[reply] 98 % of control
